Parameter: pIC50. Scope: all listed entries.
# TARGET_OR_SYSTEM: GST-CIB1 : F-scrambled peptide (Homo sapiens)
# Construct: made in house; host or cells: BL-21 plus RIL cells (E. coli)
# Sequence (Q99828 whole entry): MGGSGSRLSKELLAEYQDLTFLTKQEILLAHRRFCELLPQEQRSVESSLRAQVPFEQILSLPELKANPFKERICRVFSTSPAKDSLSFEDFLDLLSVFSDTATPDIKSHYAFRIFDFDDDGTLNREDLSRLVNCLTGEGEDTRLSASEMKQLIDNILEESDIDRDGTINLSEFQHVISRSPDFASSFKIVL
# ASSAY_TEXT: FP scrambled-peptide counter screen, 384-well format
# Format: binding
# TEST_SETTINGS: F-scrambled peptide; read-out: 384-well COUNTERSCREEN IC50
// scale note: pIC50 = -log10(conc_M); give the bare number

Inquiry: Consider the compound CN1CCCN=C1/C=C/c1cccs1 . State its measured pIC50.
Reply text: 5.34

Inquiry: Consider the compound Cc1csc(CNc2ncnc3ccc(-c4ccc(CO)o4)cc23)n1.O=C(O)C(F)(F)F . State its measured pIC50.
Reply text: 4.60

Inquiry: Consider the compound O=C(Nc1nc(-c2ccccc2)cs1)c1ccncc1NS(=O)(=O)c1ccc2ccccc2c1.O=C(O)C(F)(F)F . State its measured pIC50.
Reply text: 4.55
